// data source = patent US9505749B2

tested on: Axin2 accumulation in SW480 cells; assay: Axin2 384 immunofluorescence assay; format: cell-based; details: Homo sapiens; SW480 cells, 24 hours; read-out: Axin2 384 IF EC50
OBSERVABLE: EC50 (nM)
Give the quantity in nM, number only.

Recorded results for 6 compounds are shown here.
| SUBSTANCE SMILES | DISPLAY UNIT | EC50 |
| --- | --- | --- |
| O=C(CCCc1nc2ccccc2c(=O)[nH]1)N1CCC(c2nnc(-c3cnccn3)o2)CC1 | nM | 1250 |
| O=C(CCSc1nc2ccccc2c(=O)[nH]1)N[C@H]1CC[C@H](c2nnc(-c3cccc(F)c3)o2)CC1 | nM | 5.72 |
| N#Cc1ccc2c(c1)[nH]c(=O)n2[C@H]1CC[C@H](NC(=O)CCSc2nc3ccccc3c(=O)[nH]2)CC1 | nM | 9.45 |
| O=C(CCCc1nc2ccccc2c(=O)[nH]1)N1CCC(n2c(=O)[nH]c3cc(F)ccc32)CC1 | nM | 661 |
| O=C(CSc1nc2ccccc2c(=O)[nH]1)N[C@H]1CC[C@H](n2c(=O)[nH]c3ccc(Cl)cc32)CC1 | nM | 38.1 |
| O=C(CCCc1nc2ccccc2c(=O)[nH]1)N1CCC(c2nnc(-c3ccccc3)s2)CC1 | nM | 1230 |

Could you now look at the following compound, please?
Asked: Any idea what its EC50 is? The compound is O=C(CSc1nc2ccccc2c(=O)[nH]1)N1CCC(c2nnc(-c3ccccc3)o2)CC1
Given back: 2330

###

As a worked illustration, we turn to pIC50 data collected for PARP2 (Homo sapiens (Human), UniProt Q9UGN5).
By convention, pIC50 is the negative base-10 log of a molar concentration.

Asked: Recall the recorded pIC50 for O=C(CCCc1nc2ccccc2c(=O)[nH]1)N1CCC(n2c(=O)[nH]c3cccnc32)CC1 with PARP2 (Homo sapiens (Human), UniProt Q9UGN5) and state it.
Sequence (Q9UGN5 whole entry): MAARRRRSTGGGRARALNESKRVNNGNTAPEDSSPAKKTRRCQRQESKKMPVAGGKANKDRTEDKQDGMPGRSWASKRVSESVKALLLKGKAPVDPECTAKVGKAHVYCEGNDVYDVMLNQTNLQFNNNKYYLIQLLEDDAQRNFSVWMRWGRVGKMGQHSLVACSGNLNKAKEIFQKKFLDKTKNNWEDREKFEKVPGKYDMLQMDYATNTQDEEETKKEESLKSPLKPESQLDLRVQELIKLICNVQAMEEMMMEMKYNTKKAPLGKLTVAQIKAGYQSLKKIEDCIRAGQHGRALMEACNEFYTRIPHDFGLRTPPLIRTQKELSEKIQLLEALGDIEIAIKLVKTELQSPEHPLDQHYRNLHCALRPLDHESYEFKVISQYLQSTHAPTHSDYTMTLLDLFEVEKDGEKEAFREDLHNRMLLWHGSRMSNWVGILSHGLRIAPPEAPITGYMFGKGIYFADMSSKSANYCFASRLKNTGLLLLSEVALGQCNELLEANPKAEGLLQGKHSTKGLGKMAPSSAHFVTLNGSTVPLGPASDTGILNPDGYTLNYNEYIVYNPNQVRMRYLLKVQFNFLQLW
Given back: 6.40

Asked: Under PARP2 (Homo sapiens (Human), UniProt Q9UGN5): pIC50 value of O=C(CCCc1nc2ccccc2c(=O)[nH]1)N1CCC(c2nnc(-c3cnccn3)o2)CC1 ?
Given back: 5.66

Asked: Query pIC50 on PARP2 (Homo sapiens (Human), UniProt Q9UGN5) for N#Cc1ccc(O[C@H]2CC[C@H](NC(=O)CCCc3nc4ccccc4c(=O)[nH]3)CC2)cc1Cl
Given back: 6.54

Asked: Lab request: please report pIC50 under test system PARP2 (Homo sapiens (Human), UniProt Q9UGN5) for O=C(CCCSc1nc2ccccc2c(=O)[nH]1)N[C@H]1CC[C@H](c2nnc(-c3ccccc3)o2)CC1
Given back: 5.84

Asked: Query the reported pIC50 for PARP2 (Homo sapiens (Human), UniProt Q9UGN5); item: Cc1ccc2[nH]c(=O)n(C3CCN(C(=O)CCCc4nc5ccccc5c(=O)[nH]4)CC3)c2c1
Given back: 6.72

Asked: Give pIC50 (PARP2 (Homo sapiens (Human), UniProt Q9UGN5)) of the following compound: O=C(CCc1nc2ccccc2c(=O)[nH]1)N[C@H]1CC[C@H](n2c(=O)[nH]c3ccc(Cl)cc32)CC1
Given back: 6.55

###

These compounds were tested on PARP1 (Homo sapiens (Human), UniProt P09874); pIC50 is the recorded read-out.
Sequence (P09874 whole entry): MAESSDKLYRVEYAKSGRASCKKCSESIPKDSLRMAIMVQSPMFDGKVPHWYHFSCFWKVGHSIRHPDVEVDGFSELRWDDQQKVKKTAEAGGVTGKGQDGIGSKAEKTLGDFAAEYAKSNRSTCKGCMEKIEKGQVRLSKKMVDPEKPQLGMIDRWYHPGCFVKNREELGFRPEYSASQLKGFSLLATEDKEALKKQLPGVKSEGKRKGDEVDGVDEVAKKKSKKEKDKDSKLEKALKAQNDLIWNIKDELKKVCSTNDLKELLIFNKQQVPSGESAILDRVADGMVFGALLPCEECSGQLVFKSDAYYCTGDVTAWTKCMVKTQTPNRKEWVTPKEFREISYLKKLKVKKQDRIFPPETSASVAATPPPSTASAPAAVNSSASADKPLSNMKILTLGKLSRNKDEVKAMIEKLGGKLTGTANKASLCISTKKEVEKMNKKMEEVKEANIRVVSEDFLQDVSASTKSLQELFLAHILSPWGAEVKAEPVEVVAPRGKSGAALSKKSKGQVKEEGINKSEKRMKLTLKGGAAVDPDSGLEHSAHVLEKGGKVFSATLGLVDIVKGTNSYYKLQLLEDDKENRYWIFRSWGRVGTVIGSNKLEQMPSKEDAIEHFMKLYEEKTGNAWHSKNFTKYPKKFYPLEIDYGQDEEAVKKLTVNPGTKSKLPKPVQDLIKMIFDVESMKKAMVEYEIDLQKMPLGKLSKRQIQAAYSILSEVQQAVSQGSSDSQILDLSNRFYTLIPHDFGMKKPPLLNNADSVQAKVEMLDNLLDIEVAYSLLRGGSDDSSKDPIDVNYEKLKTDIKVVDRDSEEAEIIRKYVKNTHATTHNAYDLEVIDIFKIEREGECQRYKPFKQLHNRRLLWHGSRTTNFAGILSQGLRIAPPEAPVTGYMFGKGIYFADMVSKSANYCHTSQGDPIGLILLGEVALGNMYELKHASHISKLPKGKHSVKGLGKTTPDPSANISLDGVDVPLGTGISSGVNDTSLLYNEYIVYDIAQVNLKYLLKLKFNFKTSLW
Quick note: pIC50 values are minus log10 of concentrations in mol/L.

| SUBSTANCE SMILES | TEST VALUE |
| --- | --- |
| O=C(CCCc1nc2ccccc2c(=O)[nH]1)N1CC=C(n2c(=O)[nH]c3ccccc32)CC1 | 5.69 |

Asked: Find pIC50 (PARP1 (Homo sapiens (Human), UniProt P09874)) for the entry O=C(CCCc1nc2ccccc2c(=O)[nH]1)N[C@H]1CC[C@H](c2nnc(-c3ccc(Cl)cc3)o2)CC1
Given back: 5.78

Asked: Which measured pIC50 belongs to O=C(CCCc1nc2ccccc2c(=O)[nH]1)N[C@H]1CC[C@H](Oc2ccc(Cl)cc2)CC1 , tested on PARP1 (Homo sapiens (Human), UniProt P09874)?
Given back: 5.59

Asked: Value wanted: pIC50 (PARP1 (Homo sapiens (Human), UniProt P09874)) of entry O=C(CCCc1nc2ccccc2c(=O)[nH]1)N1CCC(c2nnc(-c3cccc(F)c3)o2)CC1
Given back: 5.42

Asked: Value wanted: pIC50 (PARP1 (Homo sapiens (Human), UniProt P09874)) of entry O=C(CCc1nc2ccccc2c(=O)[nH]1)N[C@H]1CC[C@H](c2nnc(-c3ccccc3Cl)o2)CC1
Given back: 5.41

Asked: Provide value of pIC50 for this record tested with PARP1 (Homo sapiens (Human), UniProt P09874): O=C(CCc1nc2ccc(F)cc2c(=O)[nH]1)N[C@H]1CC[C@H](c2nnc(-c3ccccc3)o2)CC1
Given back: 6.03

Asked: Requested read-out pIC50, target or system PARP1 (Homo sapiens (Human), UniProt P09874), entry O=C(CCCc1nc2ccccc2c(=O)[nH]1)N[C@H]1CC[C@H](Oc2cccnc2)CC1
Given back: 5.72

###

tested on: Axin2 accumulation in SW480 cells; assay: Axin2 384 immunofluorescence assay; type: cell-based; settings: Homo sapiens; SW480 cells, 24 hours; read-out: Axin2 384 IF EC50
OBSERVABLE: pEC50
API: returns pEC50 as number; meaning -log10 of concentration in mol/L.

These solved cases illustrate the format of a correct answer.
| COMPOUND | ASSAY TARGET | OBSERVABLE | TEST VALUE |
| --- | --- | --- | --- |
| O=C(CCCc1nc2ccccc2c(=O)[nH]1)N[C@H]1CC[C@H](c2nnc(-c3cccc(F)c3)o2)CC1 [Example 31] | Axin2 accumulation in SW480 cells | pEC50 | 7.51 |
| O=C(CCSc1nc2ccccc2c(=O)[nH]1)N[C@H]1CC[C@H](Oc2ccc(F)cc2)CC1 [Example 100] | Axin2 accumulation in SW480 cells | pEC50 | 7.64 |
| O=C(CCSc1nc2c(c(=O)[nH]1)CCCC2)N[C@H]1CC[C@H](c2nnc(-c3ccccc3)o2)CC1 [Example 115] | Axin2 accumulation in SW480 cells | pEC50 | 7.84 |
| N#Cc1ccc(O[C@H]2CC[C@H](NC(=O)CCSc3nc4ccccc4c(=O)[nH]3)CC2)cc1Cl [Example 114] | Axin2 accumulation in SW480 cells | pEC50 | 8.07 |
| O=C(CCCc1nc2ccccc2c(=O)[nH]1)N1CCC(c2nnc(-c3ccccn3)o2)CC1 [Example 12] | Axin2 accumulation in SW480 cells | pEC50 | 5.91 |

Asked: What reported pEC50 corresponds to N#Cc1ccc(O[C@H]2CC[C@H](NC(=O)CCSc3nc4c(c(=O)[nH]3)CCCC4)CC2)cc1 [Example 116] on Axin2 accumulation in SW480 cells?
Given back: 7.97

Asked: Short answer please: pEC50, Axin2 accumulation in SW480 cells, entry O=C(CCc1cc(=O)n2ccccc2n1)N[C@H]1CC[C@H](c2nnc(-c3ccccc3)o2)CC1 [Example 38]
Given back: 5.09

Asked: Missing value: pEC50, Axin2 accumulation in SW480 cells, entry O=C(CCc1nc2ccccc2c(=O)[nH]1)N[C@H]1CC[C@H](c2nnc(-c3ccccc3)o2)CC1 [Example 2] . Fill in?
Given back: 6.19

###

target: PARP2 (Homo sapiens (Human)); assay: PARP2 biochemical assay (BPS kit)
Measured IC50 by item
I only need the number, in nM, no unit after it.

Previously resolved entries follow.
| COMPOUND | TEST VALUE |
| --- | --- |
| O=C(CCc1nc2ccccc2c(=O)[nH]1)N[C@H]1CC[C@H](c2nnc(-c3cccnc3)o2)CC1 [Example 136] | 1060 |
| O=C(CCSc1nc2ccccc2c(=O)[nH]1)N[C@H]1CC[C@H](Oc2ccc(F)cc2)CC1 [Example 100] | 4950 |
| Cc1cccc(-c2nnc(C3CCN(C(=O)CCCc4nc5ccccc5c(=O)[nH]4)CC3)o2)c1 [Example 22] | 1590 |
| O=C(CCCc1nc2ccccc2c(=O)[nH]1)N[C@H]1CC[C@H](Oc2cccc(Cl)c2)CC1 [Example 66] | 998 |
| O=C(CCSCc1nc2ccccc2c(=O)[nH]1)N[C@H]1CC[C@H](c2nnc(-c3ccccc3)o2)CC1 [Example 92] | 2420 |
| O=C(CCSc1nc2ccccc2c(=O)[nH]1)N[C@H]1CC[C@H](c2nnc(-c3ccc(F)c(Cl)c3)o2)CC1 [Example 122] | 7690 |
| O=C(CCCc1nc2ccccc2c(=O)[nH]1)N1CCC(c2nnc(-c3ccccc3F)o2)CC1 [Example 18] | 1120 |
| COc1ccc(-c2nnc([C@H]3CC[C@H](NC(=O)CCCc4nc5ccccc5c(=O)[nH]4)CC3)o2)cc1 [Example 30] | 1270 |
| O=C(CCc1nc2c(c(=O)[nH]1)CCCN2)N[C@H]1CC[C@H](c2nnc(-c3ccccc3)o2)CC1 [Example 88] | 530 |
| O=C(CCCc1nc2ccccc2c(=O)[nH]1)N1CCC(c2nnc(-c3cccc(F)c3)o2)CC1 [Example 5] | 2350 |

Asked: What value of measured IC50 is listed for Cc1ccc2c(c1)[nH]c(=O)n2C1CCN(C(=O)CCCc2nc3ccccc3c(=O)[nH]2)CC1 [Example 11] ?
Given back: 103
